Reference source for all entries: patent US20220402948A1

Target: UniProt:P00533
Sequence (P00533 25-1210): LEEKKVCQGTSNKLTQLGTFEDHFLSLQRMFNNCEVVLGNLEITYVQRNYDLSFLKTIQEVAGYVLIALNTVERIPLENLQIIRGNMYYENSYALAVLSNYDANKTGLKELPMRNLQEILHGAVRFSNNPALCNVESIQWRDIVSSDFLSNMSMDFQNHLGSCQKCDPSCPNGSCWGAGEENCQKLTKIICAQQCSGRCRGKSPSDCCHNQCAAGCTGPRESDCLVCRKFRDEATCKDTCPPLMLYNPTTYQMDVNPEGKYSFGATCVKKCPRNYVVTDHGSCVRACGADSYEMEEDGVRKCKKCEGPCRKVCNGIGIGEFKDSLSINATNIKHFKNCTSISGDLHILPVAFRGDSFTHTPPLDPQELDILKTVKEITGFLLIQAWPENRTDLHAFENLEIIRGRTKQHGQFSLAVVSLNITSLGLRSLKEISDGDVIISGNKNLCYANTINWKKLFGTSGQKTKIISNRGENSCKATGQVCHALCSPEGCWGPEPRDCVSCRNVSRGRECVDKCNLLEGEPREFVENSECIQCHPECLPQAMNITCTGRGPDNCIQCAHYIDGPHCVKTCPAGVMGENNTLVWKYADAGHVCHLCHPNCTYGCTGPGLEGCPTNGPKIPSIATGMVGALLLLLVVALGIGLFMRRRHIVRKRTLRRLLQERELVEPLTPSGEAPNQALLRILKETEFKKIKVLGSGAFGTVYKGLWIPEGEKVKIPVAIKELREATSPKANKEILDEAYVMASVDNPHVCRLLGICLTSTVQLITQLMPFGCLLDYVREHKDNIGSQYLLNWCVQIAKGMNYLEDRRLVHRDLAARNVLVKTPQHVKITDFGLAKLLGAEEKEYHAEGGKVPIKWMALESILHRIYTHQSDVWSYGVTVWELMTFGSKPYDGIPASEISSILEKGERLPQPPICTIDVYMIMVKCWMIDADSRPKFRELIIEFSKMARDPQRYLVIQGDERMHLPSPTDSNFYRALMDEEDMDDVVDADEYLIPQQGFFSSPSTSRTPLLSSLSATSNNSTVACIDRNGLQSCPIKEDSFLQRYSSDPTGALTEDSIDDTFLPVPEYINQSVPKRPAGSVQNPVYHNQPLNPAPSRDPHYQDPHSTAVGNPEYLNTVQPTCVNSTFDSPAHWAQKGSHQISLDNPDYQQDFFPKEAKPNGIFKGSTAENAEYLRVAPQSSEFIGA
Decide using IC50 alone. Strictly below 30 nM: label 1. Equal to or above 30 nM: label 0.

The following compounds have reported results that may help.
[[record]]
compound = "CCc1cc(Nc2ncc(Cl)c(Nc3ccc(-c4cnccc4OC)cc3P(C)(C)=O)n2)c(OC)cc1N1CCC(N2CCN(C)CC2)CC1 [Compound 53]"
qualitative_label = "label 0"

[[record]]
compound = "CCc1cc(Nc2ncc(Br)c(Nc3ccc(-c4ncc(C(C)C)cn4)cc3P(C)(C)=O)n2)c(OC)cc1N1CCC(N2CCN(C)CC2)CC1 [Compound 73]"
qualitative_label = "label 0"

[[record]]
compound = "COc1cnn(-c2ccc(Nc3nc(Nc4cc(OC)c(N5CCC(O)CC5)cc4C)ncc3Br)c(P(C)(C)=O)c2)c1 [Compound K-039]"
qualitative_label = "label 1"

[[record]]
compound = "CCc1cc(Nc2ncc(Br)c(Nc3ccc(-c4ncc(C)cn4)cc3P(C)(C)=O)n2)c(OC)cc1N1CCC(N2CCN(C)CC2)CC1 [Compound 21]"
qualitative_label = "label 1"


Lab note: next compound to report on.
Is IC50 strictly under 30 nM for the entry CCc1cc(Nc2ncc(Br)c(Nc3ccc(-c4cncc(OC)n4)cc3P(C)(C)=O)n2)c(OC)cc1N1CCC(N2CCN(C)CC2)CC1 [Compound 13] ?
label 0
